Hello, the source for this data is PubChem BioAssay AID1117353, in case you need it.

Target: Vascular endothelial growth factor receptor 2 (Homo sapiens) (UniProt P35968)
Sequence (P35968 whole entry, looked up): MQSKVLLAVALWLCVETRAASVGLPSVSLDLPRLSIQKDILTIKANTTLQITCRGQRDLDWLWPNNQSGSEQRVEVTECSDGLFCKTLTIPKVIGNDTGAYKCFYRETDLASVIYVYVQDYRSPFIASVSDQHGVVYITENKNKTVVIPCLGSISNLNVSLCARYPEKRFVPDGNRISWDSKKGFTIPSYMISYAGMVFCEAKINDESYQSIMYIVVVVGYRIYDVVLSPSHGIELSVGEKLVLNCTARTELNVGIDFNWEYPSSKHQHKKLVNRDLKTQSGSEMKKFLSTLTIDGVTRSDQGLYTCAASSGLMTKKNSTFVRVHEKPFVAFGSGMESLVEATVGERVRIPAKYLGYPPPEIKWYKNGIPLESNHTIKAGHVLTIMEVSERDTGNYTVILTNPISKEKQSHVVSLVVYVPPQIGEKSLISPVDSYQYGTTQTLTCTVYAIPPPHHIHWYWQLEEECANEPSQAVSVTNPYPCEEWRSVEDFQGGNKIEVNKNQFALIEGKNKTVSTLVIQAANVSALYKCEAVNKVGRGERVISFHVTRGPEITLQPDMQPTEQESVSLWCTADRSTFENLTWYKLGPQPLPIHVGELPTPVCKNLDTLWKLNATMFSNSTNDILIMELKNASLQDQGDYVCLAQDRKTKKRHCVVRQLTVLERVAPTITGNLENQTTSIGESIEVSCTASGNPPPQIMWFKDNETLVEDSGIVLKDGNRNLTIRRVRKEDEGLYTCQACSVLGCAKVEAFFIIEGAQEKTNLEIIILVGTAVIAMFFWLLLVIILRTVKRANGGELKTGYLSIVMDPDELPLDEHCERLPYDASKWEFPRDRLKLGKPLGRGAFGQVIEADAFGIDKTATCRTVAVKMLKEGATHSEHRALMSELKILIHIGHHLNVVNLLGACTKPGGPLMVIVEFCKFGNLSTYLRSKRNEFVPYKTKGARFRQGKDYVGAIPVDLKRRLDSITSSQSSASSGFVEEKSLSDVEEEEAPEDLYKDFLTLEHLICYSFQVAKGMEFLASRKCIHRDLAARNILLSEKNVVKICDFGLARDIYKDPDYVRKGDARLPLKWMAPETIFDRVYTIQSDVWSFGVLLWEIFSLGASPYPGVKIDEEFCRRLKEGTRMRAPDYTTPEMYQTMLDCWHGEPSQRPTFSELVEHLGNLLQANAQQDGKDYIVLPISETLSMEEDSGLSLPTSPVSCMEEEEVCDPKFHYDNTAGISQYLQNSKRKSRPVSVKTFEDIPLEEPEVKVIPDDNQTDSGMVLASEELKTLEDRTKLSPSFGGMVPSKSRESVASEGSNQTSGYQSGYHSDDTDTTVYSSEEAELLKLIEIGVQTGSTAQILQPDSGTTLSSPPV
Experiment: VEGFR2 inhibitors, primary assay, biochemical, Homo sapiens, LANCE Ultra TR-FRET, NPC library (AID 1117353)
Conditions: LANCE Ultra TR-FRET kinase assay; at 20 µM (top of the series)
Classification field: Y = inhibition at or over 10%; N = inhibition under 10%.

Examples from the recorded data:
>  <compound>
O=C(NOCC1CC1)c1ccc(F)c(F)c1Nc1ccc(I)cc1Cl

>  <group-label>
Y

$$$$
>  <compound>
COc1cc([C@@H]2c3cc4c(cc3[C@H](O)[C@H]3COC(=O)[C@H]23)OCO4)cc(OC)c1OC

>  <group-label>
Y

$$$$
>  <compound>
CCCSc1ccc2nc(NC(=O)OC)[nH]c2c1

>  <group-label>
N

$$$$
>  <compound>
O=C(O)c1ccc(-n2nc(-c3ccccc3O)nc2-c2ccccc2O)cc1

>  <group-label>
N

$$$$

Consider the additional compound presented here.
Assess whether reported inhibition for C[n+]1c2cc(N)ccc2cc2ccc(N)cc21 (tested in a mixture with another compound) sits at 10% or higher.
N
